Experiment: AUC in Sprague-Dawley rat at 5 mg/kg, po
Type: ADME, organism-based
Parameters: dose 5 mg/kg, route oral
Conditions: plasma
QUANTITY NAME: AUC (µg·h/mL)
Numbers only; they are read as µg·h/mL.

Look up and state reported AUC for CC1(C)Oc2nc(C(F)(F)F)nc(N)c2N=C1c1ccc2c(c1)CC[C@]21CC[C@@H](CC(=O)O)CC1
22.9

----------
Test: Clearance in CD1 mouse at 0.5 mg/kg, iv
Type: ADME, organism-based
Set-up: dose 0.5 mg/kg, route intravenous
Conditions: in vivo
QUANTITY NAME: clearance
Answers without a unit are incomplete; give the number and then its unit.

Look up and state reported clearance for CC1(C)Oc2nc(C(F)(F)F)nc(N)c2N=C1c1ccc2c(c1)CC[C@]21CC[C@@H](CC(=O)O)CC1
7.5 mL/min/kg

Next, consider the following compound.
Look up and state reported clearance for CC1(C)Oc2ncnc(N)c2N=C1c1ccc([C@H]2CC[C@H](CC(=O)O)CC2)cc1
1.83 mL/min/kg

Just for reference, ChEMBL document CHEMBL3232847 is where these values come from.
